Origin of the recorded values: patent US5118704A

# TEST SYSTEM: α2-adrenergic receptors (Rattus norvegicus, UniProt P22909)
# Construct: rat cerebral cortex membranes were employed as a source of receptors; from tissue; host or cells: cerebral cortex membranes of male Sprague Dawley rats
# Sequence (P22909 whole entry): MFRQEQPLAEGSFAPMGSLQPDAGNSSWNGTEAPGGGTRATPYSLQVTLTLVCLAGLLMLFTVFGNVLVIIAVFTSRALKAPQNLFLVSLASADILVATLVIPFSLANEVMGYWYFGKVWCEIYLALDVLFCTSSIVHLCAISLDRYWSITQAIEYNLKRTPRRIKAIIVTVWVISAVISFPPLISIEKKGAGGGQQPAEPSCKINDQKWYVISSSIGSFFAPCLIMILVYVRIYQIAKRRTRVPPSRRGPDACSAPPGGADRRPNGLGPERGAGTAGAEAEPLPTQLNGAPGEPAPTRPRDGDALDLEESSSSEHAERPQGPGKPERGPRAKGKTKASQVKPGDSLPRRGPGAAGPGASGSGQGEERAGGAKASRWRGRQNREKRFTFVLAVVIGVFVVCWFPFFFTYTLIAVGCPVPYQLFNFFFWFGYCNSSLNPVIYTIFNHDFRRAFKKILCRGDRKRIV
# MEASUREMENT PROTOCOL: Radioligand binding to α2-adrenergic receptors ([3H]-Para aminoclonidine, rat cerebral cortex membranes)
I'd appreciate it if you could supply Ki values for the items below.
Answer shape: numeric part, then the unit.

Give Ki (α2-adrenergic receptors (Rattus norvegicus, UniProt P22909)) of the following compound: CCCN(CCCn1c(C)ccc1C)C1CCc2c(O)cccc2C1 (centres unmarked) 1600 nM

Give Ki (α2-adrenergic receptors (Rattus norvegicus, UniProt P22909)) of the following compound: CCCN(CCc1cccs1)C1CCc2c(O)cccc2C1 (racemic) [Example N-0437, reference compound] 190 nM
